Could you please report measured IC50 for the items listed next?
molecular target: Voltage-gated L-type calcium channel (Homo sapiens, UniProt Q13936+Q13698+Q01668+O60840); assay: Inhibition of Cav1.2 current measured using QPatch automatic path clamp system in CHO cells expressing Cav1.2, beta-2 and alpha-2/delta-1 subunits; assay type: functional, cell-based, Cricetulus griseus; set-up: ca sol conc 1.8 mM, temp Ambient

Problem: Tell me reported IC50 for `O=C(CCCN1CC=C(n2c(=O)[nH]c3ccccc32)CC1)c1ccc(F)cc1` , tested with Voltage-gated L-type calcium channel (Homo sapiens, UniProt Q13936+Q13698+Q01668+O60840).
Solution: 7.6 µM

Problem: Tell me reported IC50 for `O=C1NCCN1CCN1CCC(c2cn(-c3ccc(F)cc3)c3ccc(Cl)cc23)CC1` , tested with Voltage-gated L-type calcium channel (Homo sapiens, UniProt Q13936+Q13698+Q01668+O60840).
Solution: 6.3 µM

Problem: Tell me reported IC50 for COc1cc(N)c(Cl)cc1C(=O)NC1CCN(CCCOc2ccc(F)cc2)CC1OC (stereo not drawn) [CISAPRIDE] , tested with Voltage-gated L-type calcium channel (Homo sapiens, UniProt Q13936+Q13698+Q01668+O60840).
Solution: 11.8 µM

Problem: Tell me reported IC50 for `O=C1CCc2cc(OCCCCc3nnnn3C3CCCCC3)ccc2N1` , tested with Voltage-gated L-type calcium channel (Homo sapiens, UniProt Q13936+Q13698+Q01668+O60840).
Solution: 91.2 µM

Problem: Tell me reported IC50 for `CO/N=C(\C(=O)N[C@@H]1C(=O)N2C(C(=O)O)=C(CSc3nc(=O)c(O)nn3C)CS[C@H]12)c1csc(N)n1` , tested with Voltage-gated L-type calcium channel (Homo sapiens, UniProt Q13936+Q13698+Q01668+O60840).
Solution: 153.8 µM

Problem: Tell me reported IC50 for CC(CC(c1ccccc1)c1ccccc1)NC(C)(C)C (stereo not drawn) , tested with Voltage-gated L-type calcium channel (Homo sapiens, UniProt Q13936+Q13698+Q01668+O60840).
Solution: 4.8 µM

Problem: Tell me reported IC50 for `O=C1NC(=O)C(c2ccccc2)(c2ccccc2)N1` , tested with Voltage-gated L-type calcium channel (Homo sapiens, UniProt Q13936+Q13698+Q01668+O60840).
Solution: 21.9 µM

Problem: Tell me reported IC50 for CCCCCCCN(CC)CCCC(O)c1ccc(NS(C)(=O)=O)cc1 (stereo not drawn) [IBUTILIDE] , tested with Voltage-gated L-type calcium channel (Homo sapiens, UniProt Q13936+Q13698+Q01668+O60840).
Solution: 62.5 µM

Problem: Tell me reported IC50 for `C[C@@H]1CN(c2c(F)c(N)c3c(=O)c(C(=O)O)cn(C4CC4)c3c2F)C[C@H](C)N1` , tested with Voltage-gated L-type calcium channel (Homo sapiens, UniProt Q13936+Q13698+Q01668+O60840).
Solution: 88.8 µM

Problem: Tell me reported IC50 for `CC(=O)NC[C@H]1CN(c2ccc(N3CCOCC3)c(F)c2)C(=O)O1` , tested with Voltage-gated L-type calcium channel (Homo sapiens, UniProt Q13936+Q13698+Q01668+O60840).
Solution: 105.4 µM

Problem: Tell me reported IC50 for Cc1nc2n(c(=O)c1CCN1CCC(c3noc4cc(F)ccc34)CC1)CCCC2O (stereo not drawn) , tested with Voltage-gated L-type calcium channel (Homo sapiens, UniProt Q13936+Q13698+Q01668+O60840).
Solution: 193.9 µM

Problem: Tell me reported IC50 for `CCN(CC)CCNC(=O)c1c(C)[nH]c(/C=C2\C(=O)Nc3ccc(F)cc32)c1C` , tested with Voltage-gated L-type calcium channel (Homo sapiens, UniProt Q13936+Q13698+Q01668+O60840).
Solution: 33.4 µM

Problem: Tell me reported IC50 for CC(C)N(CCC(C(N)=O)(c1ccccc1)c1ccccn1)C(C)C (stereo not drawn) [DISOPYRAMIDE] , tested with Voltage-gated L-type calcium channel (Homo sapiens, UniProt Q13936+Q13698+Q01668+O60840).
Solution: 1036.7 µM

Problem: Tell me reported IC50 for `Cc1cn([C@@H]2C[C@@H](O)[C@H](CO)O2)c(=O)[nH]c1=O` , tested with Voltage-gated L-type calcium channel (Homo sapiens, UniProt Q13936+Q13698+Q01668+O60840).
Solution: 713.9 µM

Problem: Tell me reported IC50 for `NC(=O)c1ncn([C@@H]2O[C@H](CO)[C@@H](O)[C@H]2O)n1` , tested with Voltage-gated L-type calcium channel (Homo sapiens, UniProt Q13936+Q13698+Q01668+O60840).
Solution: 622.5 µM

Problem: Tell me reported IC50 for `N[C@@H](CC(=O)N1CCn2c(nnc2C(F)(F)F)C1)Cc1cc(F)c(F)cc1F` , tested with Voltage-gated L-type calcium channel (Homo sapiens, UniProt Q13936+Q13698+Q01668+O60840).
Solution: 147.1 µM

Problem: Tell me reported IC50 for `CCN1CCN(C(=O)N[C@@H](C(=O)N[C@@H]2C(=O)N3[C@@H]2SC(C)(C)[C@@H]3C(=O)O)c2ccccc2)C(=O)C1=O` , tested with Voltage-gated L-type calcium channel (Homo sapiens, UniProt Q13936+Q13698+Q01668+O60840).
Solution: 1226 µM

Problem: Tell me reported IC50 for `Fc1ccc([C@@H]2CCNC[C@H]2COc2ccc3c(c2)OCO3)cc1` , tested with Voltage-gated L-type calcium channel (Homo sapiens, UniProt Q13936+Q13698+Q01668+O60840).
Solution: 3.9 µM

Data provenance is ChEMBL document CHEMBL3436045.
